# Assay system: full length human TREX1 (Homo sapiens)
# Construct: N-terminally His-Tev tagged full length human TREX1; His-Tev (His tag with TEV site) (N)
# Sequence (Q9NSU2 whole entry): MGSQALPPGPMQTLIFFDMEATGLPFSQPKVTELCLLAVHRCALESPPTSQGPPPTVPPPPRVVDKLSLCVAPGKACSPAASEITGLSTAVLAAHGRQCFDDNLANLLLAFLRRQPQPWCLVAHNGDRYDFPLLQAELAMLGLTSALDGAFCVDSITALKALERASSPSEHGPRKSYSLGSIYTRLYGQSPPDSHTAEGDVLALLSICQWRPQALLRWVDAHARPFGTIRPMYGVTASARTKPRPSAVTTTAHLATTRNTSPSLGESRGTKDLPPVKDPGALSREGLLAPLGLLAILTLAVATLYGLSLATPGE
# Procedure details: TREX1 Biochemical Assay (fluorescence assay, degradation of dsDNA substrate)
# Setup conditions: 150 pM TREX1, 60 nM dsDNA substrate, 25 minutes at room temperature
Assay metric: IC50

Cc1nn(C)cc1-c1cncc(N2CCC(O)(c3ccc(F)cc3)CC2)n1 [Example 8]	100 to 1000 nM
O=C(NCc1ccccn1)c1cncc(N2CCC(O)(c3ccc(F)cc3)CC2)n1 [Example 66]	> 10000 nM

Batch: IC50 for all items listed.
1. Cc1nn(C)cc1-c1cc(N2CCC(O)(c3ccc(F)c(F)c3)CC2)nc(-c2ccccc2)n1 [Example 59]
2. Cc1nc(N2CCC(O)(c3ccc(F)c(F)c3)CC2)cc(N2CCOC[C@@H]2c2ccccc2)n1 [Example 105]
3. OC1(c2ccc(F)cc2)CCN(c2cncc(-c3ccc(C(F)(F)F)cc3)n2)CC1 [Example 33]
4. Cc1cc(-c2cn(C)nc2C)nc(N2CCC(O)(c3ccc(F)c(F)c3)CC2)c1 [Example 43]

Output:
1: 1000 to 10000 nM; 2: 1000 to 10000 nM; 3: > 10000 nM; 4: 100 to 1000 nM

Batch: IC50 for all items listed.
1. Cc1nn(C)cc1-c1cnnc(N2CCC(O)(c3ccc(F)c(F)c3)CC2)c1 [Example 88]
2. Cc1nc(N2CCC(O)(c3ccc(F)c(F)c3)CC2)cc(N(C)C2(c3ccccn3)CC2)n1 [Example 108]
3. O=C(NCC(O)c1ccccc1)c1cncc(N2CCC(O)(c3ccc(F)cc3)CC2)n1 (centres unmarked) [Example 71]
4. OC1(c2ccc(F)cc2)CCN(c2cncc(-c3cccnc3)n2)CC1 [Example 16]

Output:
100 to 1000 nM
100 to 1000 nM
1000 to 10000 nM
1000 to 10000 nM
